# Test system: K-562 leukemia
# METHOD DESCRIPTION: NCI-60 one-dose screen, 48 h
# DETAILS: 10 µM
About 83,000 compounds went through this panel and 20% of them were active in at least one assay; those are over-represented in the sample as a whole. The source made the active and inactive calls. Rule for the calls: active = growth percent below 10; inactive = the rest.
In this exercise, the only acceptable responses are active, inactive

Solved cases (3 shown):
{"columns": ["MOLECULE", "GROUP"],
 "data": [
  ["O=[N+]([O-])c1ccc(Oc2cc(Cl)c(Cl)cc2Cl)c(C(F)(F)F)c1", "inactive"],
  ["Nc1c(C(=O)Nc2cccc(Br)c2)sc2nc3c(cc12)C(O)CCC3 (configuration not stated)", "active"],
  ["NC(=O)SCC(=O)Nc1ccc(S(N)(=O)=O)cc1", "inactive"]
]}

Call for entry `COc1ccc2c(c1OC)O/C(=C\c1ncc([N+](=O)[O-])n1C)C2=O` :
inactive

GET /call?item= Clc1ccc(/C=C2\CCCC3=C2N=C2SC=NN2C3c2ccc(Cl)cc2)cc1 (configuration not stated) returns the recorded outcome of this test.
inactive

Identify the outcome logged in this assay for the molecule shown: `Clc1ccc(Nc2ccnc(NCCNc3ccnc4cc(Cl)ccc34)n2)cc1`
active

For this molecule, state the assay outcome: `COc1ccc(OC)c(NC(=O)c2sc3nc4c(cc3c2N)C(=O)CCC4)c1`
inactive

====

# System: IGROV1 ovarian
# METHOD DESCRIPTION: NCI-60 one-dose screen, 48 h (100 = growth as untreated, 0 = no growth, -100 = all killed)
# DETAILS: 10 µM
About 83,000 compounds went through this panel and 20% of them were active in at least one assay; those are over-represented in the sample as a whole.
Entries and their growth values follow.
Answer in %, number only, no unit symbol.

Here's what some known entries look like.
{"columns": ["SMILES TEXT", "TEST TARGET", "ASSAY RESULT"],
 "data": [
  ["ClCC#CCSc1ncnc2c1ncn2CC#CCCl", "IGROV1 ovarian", 30.7],
  ["CC(=O)n1c(-c2ccc(Cl)c(Cl)c2)cn(-c2ccc(Cl)cc2)c1=O", "IGROV1 ovarian", 4.07],
  ["C#Cc1ccc(-n2c(/C=C/c3ccc4ccccc4n3)nc3ncccc3c2=O)cc1", "IGROV1 ovarian", -65.6]
]}

System IGROV1 ovarian. Read-out growth. Item `COc1cc(Cl)cc(-c2nn(-c3cccc(NC(=O)c4ccc(Cl)c(Cl)c4)c3)cc2-c2ccncc2)c1` . Report value.
71.6

====

# Test system: T-47D breast
# METHOD DESCRIPTION: NCI-60 one-dose screen, 48 h (100 = growth as untreated, 0 = no growth, -100 = all killed)
# DETAILS: 10 µM
Compounds without any hit were thinned out: in the full panel of roughly 83,000, 20% have a hit.
growth values for the compounds below.
Answer format: numeric, % implied, no suffix.

In the examples that follow, each entry is paired with its recorded growth.
{"columns": ["COMPOUND", "UNITS TEXT", "growth"],
 "data": [
  ["Nc1ncn([C@@H]2O[C@H](CO)[C@@H](O)[C@H]2O)c(=O)n1", "%", 26.6],
  ["CC(C)=CCc1cc(O)cc2c1OC(C=C(C)C)C1=C2C(=O)C2=C(C1=O)S(=O)(=O)CCN2 (centres undefined)", "%", -0.36],
  ["CC/C(=C(/c1ccc(OCCN(C)C)cc1)c1ccc(OC(=O)CCCCCCCCC(=O)c2c(C)[nH]c(/C=C3\\N=C(c4ccc[nH]4)C=C3OC)c2C)cc1)c1ccccc1", "%", 48.3],
  ["COc1cc(-c2nc(-c3nnc(-c4ccccc4Cl)o3)c3ccccn23)cc(OC)c1OC", "%", 61.4],
  ["CN(C)CCS(=O)(=O)CCN(C)C", "%", 111],
  ["COc1cc(C(=O)/C=C/c2cc(-c3cc(OC)c(OC)c(OC)c3)n[nH]2)cc(OC)c1OC", "%", -26.1],
  ["Cc1cc(C)c(NC(=O)c2sc3nc4c(cc3c2N)C(=O)CCC4)c(C)c1", "%", 40.6],
  ["COc1ccc(-c2nn(-c3cccc(NC(=O)c4cc(C(F)(F)F)cc(C(F)(F)F)c4)c3)cc2-c2ccncc2)cc1Cl", "%", 51.5]
]}

Find the measured growth of `O=C1/C(=C\c2ccccc2)CN(C(=O)c2ccccc2F)C/C1=C\c1ccccc1` and report it.
42.7

Consider the compound `O=C(O)CCCCSc1ncnc2nc[nH]c12` and give its recorded growth.
97.2
